Target: T1, human ST2L (human, UniProt Q01638 19-328, limits assumed)
T1 construct: also called IL-1R4; IL-33Ra
T1 sequence (looked up): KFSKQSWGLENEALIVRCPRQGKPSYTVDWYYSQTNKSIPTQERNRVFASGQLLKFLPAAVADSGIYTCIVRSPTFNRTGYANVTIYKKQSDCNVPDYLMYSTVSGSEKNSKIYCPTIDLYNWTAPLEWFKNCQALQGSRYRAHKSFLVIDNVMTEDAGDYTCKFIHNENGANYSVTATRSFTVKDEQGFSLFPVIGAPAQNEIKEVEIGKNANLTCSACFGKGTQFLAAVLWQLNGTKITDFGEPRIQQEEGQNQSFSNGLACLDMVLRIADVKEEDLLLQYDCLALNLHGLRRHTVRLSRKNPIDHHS
Experiment: affinity table; method not stated
reportedProperty: koff (s⁻¹)
Output spec: scalar in s⁻¹, unitless text.

Below are worked cases with known answers.
>>> recordedmeasurement("STLM209 (antibody, from another filing, V domains shown) VH: EVQLLESGGGLVQPGGSLRLSCAASGFTFSIYDMIWVRQAPGKGLEWVSTIRGEGGGTSYADSVKGRFTISRDNSKNTLYLQMNSLRAEDTAVYYCARDPWSTEGSFFVLDYWGQGTLVTVSS VL: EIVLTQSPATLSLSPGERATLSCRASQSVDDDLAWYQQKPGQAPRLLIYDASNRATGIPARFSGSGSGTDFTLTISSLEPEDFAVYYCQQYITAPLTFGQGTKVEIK")
0.00017
>>> recordedmeasurement("STLM103 (antibody, from another filing, V domains shown) VH: EVQLLESGGGLVQPGGSLRLSCAASGFTFSFYDMFWVRQAPGKGLEWVSSIRGEGGRTDYADSVKGRFTISRDNSKNTLYLQMNSLRAEDTAVYYCARDPWSTEGSFFVLDYWGQGTLVTVSS VL: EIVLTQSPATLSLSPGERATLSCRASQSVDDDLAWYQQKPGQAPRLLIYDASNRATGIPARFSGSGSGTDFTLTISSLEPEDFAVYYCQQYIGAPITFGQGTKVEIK")
0.000163

Now for another entry.
Lab note: STLM231 (antibody, from another filing, V domains shown) VH: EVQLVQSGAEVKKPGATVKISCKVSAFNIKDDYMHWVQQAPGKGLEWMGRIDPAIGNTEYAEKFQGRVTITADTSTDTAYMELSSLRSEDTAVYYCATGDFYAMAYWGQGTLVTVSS VL: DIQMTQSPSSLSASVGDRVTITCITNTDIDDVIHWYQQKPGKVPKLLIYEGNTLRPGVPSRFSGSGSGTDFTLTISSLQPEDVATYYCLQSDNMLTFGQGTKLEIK gave koff of 0.000913
